// data source = patent US6683079B2

test system: HIV-1 strain IIIB; assay: Retrovirucidal effect on HIV-1 strain IIIB (Table 3); assay type: cell-based; conditions: pIC50=-log IC50, IC50 in M
QUANTITY KIND: HIV1 pIC50 strain IIIB
Answer with the value's number alone.

Use these answered entries as a reference point.
CCNc1c(Cc2cc(C)cc(C)c2)c(CC)c(C)[nH]c1=O [Compound 81]    7.866
Cc1cccc(Cc2c(C)c(C)[nH]c(=O)c2N(C)C)c1 [Compound 86]    7.863

Would you kindly look at the next entry?
Lookup: Need HIV1 pIC50 strain IIIB of Cc1cccc(Cc2c3c([nH]c(=O)c2N(C)C)CCC3)c1 [Compound 132] , thanks.
Found: 7.863

* * *

system: HIV-1 strain IIIB; assay: Retrovirucidal effect on HIV-1 strain IIIB (Table 3); format: cell-based; conditions: pIC50=-log IC50, IC50 in M
// values below are reported HIV1 pIC50 strain IIIB

CCc1c(C)[nH]c(=O)c(N)c1Cc1ccnc2ccccc12 [Compound 74]    <4
CCc1c(C)[nH]c(=O)c(N)c1CN(C)Cc1ccccc1 [Compound 97]    <4
Cc1cc(C)cc(Cc2cc[nH]c(=O)c2N)c1 [Compound 15]    <4.17

Lookup: Need HIV1 pIC50 strain IIIB of CCc1c(C)[nH]c(=O)c(N)c1Cc1ccc(-c2ccccc2)cc1 [Compound 49] , thanks.
Found: <4

* * *

// values below are reported HIV1 pIC50 strain 103N
system: HIV-1 strain 103 N; test: Retrovirucidal effect on HIV-1 strain 103 N (Table 3); format: cell-based; conditions: HIV-1 strain 103N (RT Lys-103 to Asn mutant); pIC50=-log IC50, IC50 in M

CCc1c(C)[nH]c(=O)c(N(C)C)c1Cc1cccc(C(F)(F)F)c1    6.414
CCc1c(C)[nH]c(=O)c(N(C)C)c1Cc1ccccc1Cl    6.405
CCc1c(C)[nH]c(=O)c(N(C)C)c1C(=O)c1ccc(OC)c(C)c1    5.771
CCc1c(C)[nH]c(=O)c(N(C)C)c1Cc1nccs1    5.72
CCc1c(C)[nH]c(=O)c(N(C)C)c1Cc1cc(F)cc(F)c1    7.402

Lookup: Need HIV1 pIC50 strain 103N of CCc1c(C)[nH]c(=O)c(NC)c1C(=O)c1cccc(Br)c1 , thanks.
Found: 7.182

Lookup: Need HIV1 pIC50 strain 103N of CCc1c(C)[nH]c(=O)c(N(C)C)c1Cc1ccccc1C , thanks.
Found: 5.849

Lookup: Need HIV1 pIC50 strain 103N of CCc1c(C)[nH]c(=O)c(N)c1C(OC)c1cc(C)cc(C)c1 (stereo not drawn) , thanks.
Found: 6.92

Lookup: Need HIV1 pIC50 strain 103N of CCNc1c(Cc2cc(C)cc(C)c2)c(CC)c(C)[nH]c1=O , thanks.
Found: 6.444

Lookup: Need HIV1 pIC50 strain 103N of CCc1c(C)[nH]c(=O)c(N(C)C)c1C(=O)c1cccc(Br)c1 , thanks.
Found: 7.68

Lookup: Need HIV1 pIC50 strain 103N of CCc1c(Cc2cc(C)cc(C)c2)c(N(C)C)c(=O)n(CC)c1C , thanks.
Found: 4.095

Lookup: Need HIV1 pIC50 strain 103N of CCc1c(C)[nH]c(=O)c(N(C)C)c1Cc1cc(C)ccc1C , thanks.
Found: 5.729

Lookup: Need HIV1 pIC50 strain 103N of CCc1c(C)[nH]c(=O)c(N)c1CN(C)Cc1ccccc1 , thanks.
Found: <4

Lookup: Need HIV1 pIC50 strain 103N of CCc1c(C)[nH]c(=O)c(N)c1Cc1ccnc2ccccc12 , thanks.
Found: <4

Lookup: Need HIV1 pIC50 strain 103N of CCc1c(C)[nH]c(=O)c(N(C)CCCSC)c1Cc1cc(C)cc(C)c1 , thanks.
Found: 5.922

* * *

tested on: HIV-1 strain 103 N; experiment: Retrovirucidal effect on HIV-1 strain 103 N (Table 3); format: cell-based; details: HIV-1 strain 103N (RT Lys-103 to Asn mutant); pIC50=-log IC50, IC50 in M
QUANTITY KIND: HIV1 pIC50 strain 103N
Answer with the value's number alone.

Lookup: Need HIV1 pIC50 strain 103N of CCc1c(Cc2cc(C)cc(C)c2)c(N(C)C)c(=O)n(C)c1C , thanks.
Found: 6.094

Lookup: Need HIV1 pIC50 strain 103N of CCc1c(C)[nH]c(=O)c(N(C)C)c1Cc1cccc(F)c1 , thanks.
Found: 7.18

* * *

test system: HIV-1 strain IIIB; experiment: Retrovirucidal effect on HIV-1 strain IIIB (Table 3); type: cell-based; conditions: pIC50=-log IC50, IC50 in M
QUANTITY KIND: HIV1 pIC50 strain IIIB
Answer with the value's number alone.

Use these answered entries as a reference point.
CCc1c(C)[nH]c(=O)c(N)c1Cc1cc(Cl)cc(Cl)c1 [Compound 189]    6.401
CCc1c(C)[nH]c(=O)c(N)c1Cc1ccc(C)cc1 [Compound 8]    4.373
CCc1c(C)[nH]c(=O)c(N(C)C)c1Cc1ccnc2ccccc12 [Compound 75]    5.252
CCc1c(C)[nH]c(=O)c(N(C)C)c1C(=O)c1cccc(-c2ccccc2)c1 [Compound 196]    6.411
CCc1c(C)[nH]c(=O)c(N(C)C)c1Cc1ccc(OC)c(C)c1 [Compound 157]    6.413
CCc1c(Cc2cc(C)cc(C)c2)c(N(C)C)c(=O)n(Cc2ccccc2)c1C [Compound 22]    4.603
CCc1c(C)[nH]c(=S)c(N(C)C)c1C(=O)c1cc(C)cc(C)c1 [Compound 138]    8.215

Lookup: Need HIV1 pIC50 strain IIIB of CCc1c(C)[nH]c(=O)c(N(C)CC(C)C)c1Cc1cc(C)cc(C)c1 [Compound 62] , thanks.
Found: 6.604

* * *

// values below are reported HIV1 pIC50 strain 103N
system: HIV-1 strain 103 N; assay: Retrovirucidal effect on HIV-1 strain 103 N (Table 3); assay type: cell-based; conditions: HIV-1 strain 103N (RT Lys-103 to Asn mutant); pIC50=-log IC50, IC50 in M

Use these answered entries as a reference point.
CCc1c(C)[nH]c(=O)c(N(CC)CC)c1Cc1cc(C)cc(C)c1    6.363
CCc1c(C)[nH]c(=O)c(N)c1Cc1ccc(C)cc1    4.39
CCc1c(C)[nH]c(=O)c(N(C)C)c1COc1cccc(C)c1    5.026
CCc1c(C)[nH]c(=O)c(N(C)C)c1Cc1ccc(C)c(C)c1    5.947
CCc1c(C)[nH]c(=O)c(N)c1Cc1cccc(F)c1    4.473

Lookup: HIV-1 strain 103 N / HIV1 pIC50 strain 103N / CCc1c(C)[nH]c(=O)c(N)c1C(=O)c1cccc(C)c1 : value?
Found: 5.653

Lookup: HIV-1 strain 103 N / HIV1 pIC50 strain 103N / CCc1c(C)[nH]c(=O)c(N(C)CCCCCO)c1Cc1cc(C)cc(C)c1 : value?
Found: 6.918

Lookup: HIV-1 strain 103 N / HIV1 pIC50 strain 103N / CCc1c(C)[nH]c(=O)c(N(C)CCO)c1Cc1cccc(C)c1 : value?
Found: 6.028

Lookup: HIV-1 strain 103 N / HIV1 pIC50 strain 103N / CCc1c(C)[nH]c(=O)c(N(C)C)c1CSc1cccc(C)c1 : value?
Found: 4.518
